# Target Of Assay: T1, AFP158/HLA-A*02:01 complex (human)
# T1 construct: biotinylated on the BSP by BirA for ELISA and panning; also called biotinylated AFP158/HLA-A*02:01 complex; Bio-AFP158
# Experimental Protocol: SPR, crude scFv captured;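 note: Peptide–MHC complex flowed at several concentrations over sensorchip-captured scFv, Kd derived from on- and off-rates obtained from the association and dissociation curves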
Assay Metric: pKd
On this scale, pKd is minus log10 of a concentration expressed in M (mol/L).

Binder: AS170036 VL1VH1 HS53A (scFv) scFv: QSALTQPRSVSGSPGQSVTISCAGTSSDVGSENYVSWYQQHPGKAPKLMIYQVNKRASGVPDRFSGSKSGNTASLTISGLQAEDEADYYCASYRSSDHNIVFGGGTKLTVLGGGGSGGGGSGGGGSEVQLVESGGGLVQPGGSLRLSCAASGFTFSSYAMSWVRQAPGKGLEWVSTINAGTGSPYYADSVKGRFTISRDNSKNTLYLQMNSLRAEDTAVYYCAKNFFDGSWFLGPPAMDYWGQGTLVTVSSHHHHHH
pKd: 5.92

--- query ---
QUERY: What value of measured pKd is listed for AS170036 VL1VH1 HD102E (scFv) scFv: QSALTQPRSVSGSPGQSVTISCAGTSSDVGSENYVSWYQQHPGKAPKLMIYQVNKRASGVPDRFSGSKSGNTASLTISGLQAEDEADYYCASYRSSDHNIVFGGGTKLTVLGGGGSGGGGSGGGGSEVQLVESGGGLVQPGGSLRLSCAASGFTFSSYAMSWVRQAPGKGLEWVSTINSGTGSPYYADSVKGRFTISRDNSKNTLYLQMNSLRAEDTAVYYCAKNFFEGSWFLGPPAMDYWGQGTLVTVSSHHHHHH ?
RESULT: 6.72
